Provenance of the data: patent US20260355212A1

Experimental system: HCoV-NL63 Mpro (Human coronavirus NL63, UniProt P0C6X5)
Sequence (P0C6X5 2940-3242 limits assumed): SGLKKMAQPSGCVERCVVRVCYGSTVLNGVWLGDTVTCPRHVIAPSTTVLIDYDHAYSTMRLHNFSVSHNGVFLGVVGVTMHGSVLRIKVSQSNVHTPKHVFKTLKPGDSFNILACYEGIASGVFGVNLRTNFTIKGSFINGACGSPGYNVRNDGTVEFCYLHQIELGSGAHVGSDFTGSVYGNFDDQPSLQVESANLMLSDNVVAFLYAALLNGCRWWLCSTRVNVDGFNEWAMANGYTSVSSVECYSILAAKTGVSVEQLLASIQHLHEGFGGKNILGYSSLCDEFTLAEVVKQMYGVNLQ
Assay summary: HCoV-NL63 Mpro enzymatic inhibition assay (fluorescence)
Type: biochemical
Reported property: IC50 (nM)
Your answer should be a plain number; it is taken to be in nM.

Worked cases, answers included:
[[record]]
smiles_text = "O=C[C@H](C[C@@H]1CCNC1=O)NC(=O)[C@@H]1C[C@@H](C2CCCCC2)CN1C(=O)c1cc2cccc(Cl)c2[nH]1"
reported = 1050

[[record]]
smiles_text = "CC(C)c1ccc(F)c2[nH]c(C(=O)N3C[C@H]4[C@@H]([C@H]3C(=O)N[C@H](C#N)C[C@@H]3CCNC3=O)C4(C)C)cc12"
reported = 1590

[[record]]
smiles_text = "CC1(C)[C@@H]2[C@@H](C(=O)N[C@H](C=O)C[C@@H]3CCNC3=O)N(C(=O)c3cc4occc4[nH]3)C[C@@H]21"
reported = 81.3

[[record]]
smiles_text = "O=C1NCC[C@H]1C[C@H](NC(=O)[C@@H]1CC2(CC2)CN1C(=O)c1cc2ccccc2[nH]1)C(=O)c1nc2ccccc2s1"
reported = 195

[[record]]
smiles_text = "O=C[C@H](C[C@@H]1CCNC1=O)NC(=O)[C@@H]1CC2(CC2)CN1C(=O)c1cc2cccc(Cl)c2[nH]1"
reported = 48.4


Field: next molecule
Query: Please supply the value of reported IC50 for the item CC(C)(C)NC(=O)N[C@H](C(=O)N1C[C@H]2[C@@H]([C@H]1C(=O)N[C@@H](C[C@@H]1CCNC1=O)C(=O)C(N)=O)C2(C)C)C(C)(C)C
Response: 256
